Cited source: ChEMBL document CHEMBL3351942

Tested on: Retinoic acid receptor RXR-alpha (Homo sapiens, UniProt P19793)
Sequence (P19793 whole entry): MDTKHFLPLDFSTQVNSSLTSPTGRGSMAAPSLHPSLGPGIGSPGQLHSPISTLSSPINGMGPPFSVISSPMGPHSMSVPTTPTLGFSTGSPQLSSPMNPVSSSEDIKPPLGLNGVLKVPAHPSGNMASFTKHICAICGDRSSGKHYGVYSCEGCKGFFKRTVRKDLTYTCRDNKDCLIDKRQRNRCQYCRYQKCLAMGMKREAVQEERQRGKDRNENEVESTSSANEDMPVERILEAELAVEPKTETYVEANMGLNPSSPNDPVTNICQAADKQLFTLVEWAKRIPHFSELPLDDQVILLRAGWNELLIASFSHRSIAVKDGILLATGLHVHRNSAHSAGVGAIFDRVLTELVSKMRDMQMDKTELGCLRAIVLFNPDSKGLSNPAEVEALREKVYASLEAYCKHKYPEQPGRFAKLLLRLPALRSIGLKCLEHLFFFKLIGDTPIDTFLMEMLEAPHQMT
Method description: Agonist activity at human RXR-alpha expressed in HEK293 cells coexpressing with pCMX-beta-gal after 24 to 48 hrs by luciferase reporter gene assay
pEC50: −log10 of the molar value.
Readout kind: pEC50

CC(C)=CCc1cc([C@@H]2CC(=O)c3ccc(O)c(CC=C(C)C)c3O2)cc2c1OC(C(C)(C)O)C2 (some centres not stated)	6.11
CC(C)=CCc1cc([C@@H]2CC(=O)c3ccc(O)c(CC=C(C)C)c3O2)cc2c1OC(C)(C)C(O)C2 (some centres not stated)	6.11

---

Tested on: Retinoic acid receptor RXR-alpha (Homo sapiens)
Method description: Agonist activity at human RXR-alpha expressed in HEK293 cells coexpressing with pCMX-beta-gal after 24 to 48 hrs by luciferase reporter gene assay
Assay type: cell-based
Readout kind: ED50 (µM)

C=CCc1ccc(O)c(-c2ccc(O)c(CC=C)c2)c1	11.8

I. CC/C=C\C/C=C\C/C=C\C/C=C\C/C=C\C/C=C\CCC(=O)O
II. CC(C)CCC[C@@H](C)CCC[C@@H](C)CCCC(C)CC(=O)O (some centres undefined)
III. C=C1C(=O)O[C@H]2C[C@@H](C)[C@@H]3C=CC(=O)[C@@]3(C)[C@@H](OC(C)=O)[C@H]12
Task for the reader: rank each entry by its ED50, from the minimum upward. # output: labels, in the requested order II, III, I
